# Tested on: Escherichia coli
# method: In vitro antibacterial evaluation: minimum inhibitory concentration (MIC), broth dilution method
# Format: cell-based
# experimental-conditions: Escherichia coli (GC 4559); 18 hours at 35° C.
measured-property: MIC Escherichia coli (GC 4559) (µg/mL)
Report the figure in µg/mL without appending any unit label.

CC(c1ccccc1)C1NC(=O)CNC(=O)C(CO)NC(=O)C(C(O)C2CNC(=N)N2C2OC(CO)C(O)C(O)C2O)NC(=O)C(C(O)C2CNC(=N)N2)NC(=O)C(Cc2ccc(OC3OC(CO)C(OC4OC5COC(C)(c6ccc(F)cc6)OC5C(O)C4O)C(O)C3O)cc2)NC1=O (centres unmarked) [Example 216] ... 16
CCCCN1CC(C(O)C2NC(=O)C(C(O)C3CNC(=N)N3)NC(=O)C(Cc3ccc(OC4OC(CO)C(OC5OC6COC7(OC6C(O)C5O)C5CC6CC(C5)CC7C6)C(O)C4O)cc3)NC(=O)C(C(C)c3ccccc3)NC(=O)CNC(=O)C(CO)NC2=O)N(C2OC(CO)C(O)C(O)C2O)C1=N (centres unmarked) [Example 224] ... 64
CC(c1ccccc1)C1NC(=O)CNC(=O)C(CO)NC(=O)C(CC2CNC(=N)N2C2OC(CO)C(O)C(O)C2O)NC(=O)C(CC2CNC(=N)N2)NC(=O)C(Cc2ccc(OC3OC(CO)C(OC4OC(CO)C(OCc5ccc(OCc6ccccc6)cc5)C(O)C4O)C(O)C3O)cc2)NC1=O (centres unmarked) [Example 246a] ... 16

Attention now turns to another entry.
Prompt: Looking for the measured MIC Escherichia coli (GC 4559) of CC(c1ccccc1)C1NC(=O)CNC(=O)C(CO)NC(=O)C(C(O)C2CNC(=N)N2C2OC(CO)C(O)C(O)C2O)NC(=O)C(C(O)C2CNC(=N)N2)NC(=O)C(Cc2ccc(OC3OC(CO)C(OC4OC5COC6(CC7CCC6(C)C7(C)C)OC5C(O)C4O)C(O)C3O)cc2)NC1=O (centres unmarked) [Example 214] , can you help?
Response: 64
